Target: CDK9/CycT1 (Homo sapiens (Human))
Sequence (P50750 whole entry): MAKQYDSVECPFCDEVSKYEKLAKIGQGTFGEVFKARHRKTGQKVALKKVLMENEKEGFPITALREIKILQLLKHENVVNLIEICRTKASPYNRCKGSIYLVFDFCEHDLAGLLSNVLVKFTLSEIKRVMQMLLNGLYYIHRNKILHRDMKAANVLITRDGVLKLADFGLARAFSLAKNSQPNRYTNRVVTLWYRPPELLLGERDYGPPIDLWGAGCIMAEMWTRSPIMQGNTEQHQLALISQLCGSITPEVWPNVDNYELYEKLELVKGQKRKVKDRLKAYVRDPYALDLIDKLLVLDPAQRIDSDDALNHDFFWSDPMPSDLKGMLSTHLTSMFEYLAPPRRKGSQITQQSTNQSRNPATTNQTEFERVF
Sequence (O60563 whole entry partner): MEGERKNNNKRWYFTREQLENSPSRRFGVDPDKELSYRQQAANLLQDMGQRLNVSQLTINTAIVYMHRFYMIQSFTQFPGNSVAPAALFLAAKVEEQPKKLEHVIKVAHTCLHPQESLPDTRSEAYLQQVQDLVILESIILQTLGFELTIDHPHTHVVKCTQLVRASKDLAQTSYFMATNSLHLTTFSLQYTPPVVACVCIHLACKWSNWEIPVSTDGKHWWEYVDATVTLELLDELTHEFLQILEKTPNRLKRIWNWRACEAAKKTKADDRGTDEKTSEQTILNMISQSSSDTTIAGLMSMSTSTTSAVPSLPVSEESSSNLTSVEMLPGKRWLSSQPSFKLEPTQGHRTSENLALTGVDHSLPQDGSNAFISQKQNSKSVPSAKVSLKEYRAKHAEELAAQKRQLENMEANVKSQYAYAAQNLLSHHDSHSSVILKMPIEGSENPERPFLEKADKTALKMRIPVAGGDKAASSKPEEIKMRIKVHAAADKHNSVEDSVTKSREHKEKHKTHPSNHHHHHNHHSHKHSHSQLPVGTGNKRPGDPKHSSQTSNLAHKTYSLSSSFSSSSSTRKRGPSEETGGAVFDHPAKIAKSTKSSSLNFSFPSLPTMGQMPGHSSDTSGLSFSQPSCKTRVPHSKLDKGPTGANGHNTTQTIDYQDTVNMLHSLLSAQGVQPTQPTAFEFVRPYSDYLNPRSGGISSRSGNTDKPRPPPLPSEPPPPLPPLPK
Assay: CDK9 kinase assay, high ATP concentration (5 mM ATP)
Assay type: biochemical
Conditions: 1.5 nM CDK9, read-out: CDK9 High ATP conc. (IC50)
pIC50: −log10 of the molar value.
Assay Readout: pIC50

Worked set:
{"Molecule": "CC(=O)N[C@@H]1CCC[C@H](C(=O)Nc2cc(-c3cnn4c3CN(C)CC4)c(Cl)cn2)C1 [Example 13]", "Measurement Target": "CDK9/CycT1 (Homo sapiens (Human))", "pIC50": 6.62}
{"Molecule": "CC1(C)Cc2c(-c3cc(NC(=O)[C@H]4CCC[C@@H](NC(=O)CCO)C4)ncc3Cl)cnn2C1 [Example 52]", "Measurement Target": "CDK9/CycT1 (Homo sapiens (Human))", "pIC50": 8.40}
{"Molecule": "CC(=O)N[C@@H]1CCC[C@H](C(=O)Nc2cc(-c3cnc4n3CCCC4)c(Cl)cn2)C1 [Example 7]", "Measurement Target": "CDK9/CycT1 (Homo sapiens (Human))", "pIC50": 6.16}
{"Molecule": "CC(=O)N[C@@H]1CCC[C@H](C(=O)Nc2cc(-c3cnn4c3CCCC4O)c(Cl)cn2)C1 (some centres unmarked) [Example 78]", "Measurement Target": "CDK9/CycT1 (Homo sapiens (Human))", "pIC50": 7.22}

[A] CC(=O)N[C@@H]1CC[C@H](C(=O)Nc2cc(-c3cnn4c3CC(C)(C)C4)c(Cl)cn2)C1 [Example 48]
[B] CC1(C)Cc2c(-c3cc(NC(=O)[C@H]4C[C@@H](O)C4)ncc3Cl)cnn2C1 [Example 27]
[C] CC(=O)N[C@@H]1CCC[C@H](C(=O)Nc2cc(-c3nnn4c3CCCC4)c(Cl)cn2)C1 [Example 49]
[D] CC(=O)N[C@H]1CCC[C@H](C(=O)Nc2cc(-c3cnn4c3CC(C)(C)C4)c(F)cn2)C1 (relative stereo) [Example 84]
query: Would you mind ranking these molecules by ascending pIC50? // ordering of labels required in reply
result: C, D, B, A
(C: 5.36, D: 5.67, B: 7.60, A: 8.52)
